Tested on: P. falciparum 3D7 trophozoites
protocol summary: Metabolomic fingerprint profiling LC-MS
Format: cell-based, Plasmodium falciparum
test context: metabolite dGMP/AMP; S2 Table Metabolomics, change in metabolite level after compound treatment
measured attribute: dGMP/AMP
Write the value as a bare number.

# example entries with known answers
{"molecule": "O=C(CSc1nccn2nc(-c3ccccc3)cc12)Nc1cc(C(F)(F)F)ccc1Cl [MMV396678]", "tested target": "P. falciparum 3D7 trophozoites", "dGMP/AMP": -0.1351}
{"molecule": "COc1ccc(C2=C(c3ccc(OC)cc3)C3(c4ccccc4)C(=O)C2(c2ccccc2)C2C(=O)N(c4ccc(C)cc4)C(=O)C23)cc1 (stereo not drawn) [MMV666101]", "tested target": "P. falciparum 3D7 trophozoites", "dGMP/AMP": -0.1266}
{"molecule": "c1ccc2cc3c(Nc4ccc(N5CCOCC5)cc4)ccnc3cc2c1 [MMV006861]", "tested target": "P. falciparum 3D7 trophozoites", "dGMP/AMP": -0.0595}
{"molecule": "Oc1ccccc1CNCC12CC3CC(CC(C3)C1)C2 [MMV020788]", "tested target": "P. falciparum 3D7 trophozoites", "dGMP/AMP": 0.3187}

Can you look up the measured dGMP/AMP of COc1ccc2c(=O)cc(C(Cl)(Cl)Cl)oc2c1 [MMV665820] for me?
0.08346

Can you look up the measured dGMP/AMP of COc1ccc(C=C2SC(=N)N(c3ccccc3OC)C2=O)cc1 [MMV666691] for me?
-0.07557

Can you look up the measured dGMP/AMP of c1ccc(Cn2c(N=Nc3c(Nc4ccccc4)ccc4ccccc34)nc3ccccc32)cc1 [MMV666023] for me?
0.2165

Can you look up the measured dGMP/AMP of O=C(O)C1Cc2c([nH]c3ccccc23)C(c2ccc(Cl)cc2Cl)N1 (stereo not drawn) [MMV008138] for me?
0.6095

Can you look up the measured dGMP/AMP of Cc1cccc(Nc2nc(N)c3ccccc3n2)c1 [MMV019110] for me?
0.02273

###

Tested on: P. falciparum 3D7 trophozoites
protocol summary: Metabolomic fingerprint profiling LC-MS
Assay type: cell-based, Plasmodium falciparum
test context: metabolite level change after treatment
// 0 strictly below -0.4 in 4-phosphopantothenate; 1 otherwise

Field: example entries. Status: answers known.
{"molecule": "CCOC(=O)c1c(C)n(-c2ccc(Cl)cc2)c2ccc(OC(=O)C=Cc3ccccc3)cc12", "tested target": "P. falciparum 3D7 trophozoites", "group label": 1}
{"molecule": "COc1cccc(NC(=O)[C@H](C(C)C)n2c(=O)[nH]c3ccccc3c2=O)c1", "tested target": "P. falciparum 3D7 trophozoites", "group label": 0}
{"molecule": "CCOC(=O)c1cn(CC)c2cc(N(C)CCc3ccc(OC)c(OC)c3)c(F)cc2c1=O", "tested target": "P. falciparum 3D7 trophozoites", "group label": 1}
{"molecule": "Cc1cccc(Nc2nc(N)c3ccccc3n2)c1", "tested target": "P. falciparum 3D7 trophozoites", "group label": 0}
{"molecule": "Cc1ccc(Nc2nc(-c3ccccn3)cs2)cc1", "tested target": "P. falciparum 3D7 trophozoites", "group label": 1}

Answer whether 4-phosphopantothenate of `CCN(CC)CCNc1ncnc2c1[nH]c1ccc(Cl)cc12` is greater than or equal to -0.4.
1

Answer whether 4-phosphopantothenate of `COc1ccc(-c2cc3c(SCC(=O)Nc4cc(C(F)(F)F)ccc4Cl)nccn3n2)cc1` is greater than or equal to -0.4.
1

Answer whether 4-phosphopantothenate of CCC1(C)CC(CCNCc2ccccc2O)(c2ccc(C)cc2)CCO1 (stereo not shown) is greater than or equal to -0.4.
1

###

Test system: P. falciparum 3D7 trophozoites
protocol summary: Metabolomic fingerprint profiling LC-MS
Format: cell-based, Plasmodium falciparum
test context: metabolite nicotinate, S2 Table Metabolomics
Binning rule for recorded nicotinate: LOW (below -0.3), MEDIUM (-0.3 to below 0.1), HIGH (0.1 or more)

{"compound": "C[n+]1c2ccccc2nc2ccc(NCCO)cc21", "group label": "HIGH"}

Band assignment needed for COc1ccc(C2=C(c3ccc(OC)cc3)C3(c4ccccc4)C(=O)C2(c2ccccc2)C2C(=O)N(c4ccc(C)cc4)C(=O)C23)cc1 (stereo not drawn) please.
LOW

Band assignment needed for `CCN(CC)CCNc1ccnc2cc(Cl)ccc12` please.
LOW

Band assignment needed for `Cc1ccc(-c2cc3c(SCC(=O)Nc4cc(C(F)(F)F)ccc4Cl)nccn3n2)cc1` please.
LOW

Band assignment needed for `CN(C)CCCNc1c2ccccc2nc2ccccc12` please.
MEDIUM

Band assignment needed for `COc1ccccc1CNC(=O)CCn1c(=O)[nH]c2ccccc2c1=O` please.
MEDIUM

###

protocol summary: Plasma protein binding mouse
Type: in vitro ADME
test context: CD-1, mouse
Recorded fraction unbound by entry

Can you look up the measured fraction unbound of `COc1ccc(C(=O)Nc2ccc3nc(N4CCCCC4)cc(C)c3c2)cc1OC` for me?
< 0.01

###

System: P. falciparum 3D7 trophozoites
protocol summary: Metabolomic fingerprint profiling LC-MS
Type: cell-based, Plasmodium falciparum
test context: S2 Table Metabolomics; metabolite dCMP
measured attribute: dCMP
Write the value as a bare number.

Can you look up the measured dCMP of `O=C(CSc1nccn2nc(-c3ccccc3)cc12)Nc1cc(C(F)(F)F)ccc1Cl` for me?
-0.1067

Can you look up the measured dCMP of `Cc1ccc(Nc2nc(-c3ccccn3)cs2)cc1` for me?
-0.3338

Can you look up the measured dCMP of `COc1ccccc1CNC(=O)CCn1c(=O)[nH]c2ccsc2c1=O` for me?
-0.4851

Can you look up the measured dCMP of `Cc1cc(C)c2c(c1)OCN(Cc1ccccc1Cl)C2` for me?
-1.6

Can you look up the measured dCMP of `CN(C)CCCNc1c2ccccc2nc2ccccc12` for me?
0.0599

###

Test system: P. falciparum 3D7 trophozoites
protocol summary: Metabolomic fingerprint profiling LC-MS
Format: cell-based, Plasmodium falciparum
test context: metabolite NAD+, S2 Table Metabolomics
// Condition not met strictly below -0.2 in NAD+; Condition met otherwise

Field: example entries. Status: answers known.
{"molecule": "CC1CN(C(=O)c2sc3ccccc3c2Cl)CC(C)O1 (centres unmarked)", "group label": "Condition met"}
{"molecule": "Cc1ccc(N2C3c4ccccc4N(S(=O)(=O)c4ccc(C)cc4)C2c2ccccc2N3S(=O)(=O)c2ccc(C)cc2)cc1", "group label": "Condition met"}
{"molecule": "Cc1cccc(Nc2nc(N)c3ccccc3n2)c1", "group label": "Condition met"}
{"molecule": "COc1ccc(NC(=O)C2c3ccccc3C(=O)N(CC(C)C)C2c2cccs2)cc1 (centres unmarked)", "group label": "Condition not met"}
{"molecule": "CCC1(C)CC(CCNCc2ccccc2O)(c2ccc(C)cc2)CCO1 (centres unmarked)", "group label": "Condition met"}

Please look at the following molecule next.
Answer whether NAD+ of `Cc1cc(Nc2ccc3ccccc3c2)n2ncnc2n1` is greater than or equal to -0.2.
Condition met

###

Recorded dCMP by entry
System: P. falciparum 3D7 trophozoites
protocol summary: Metabolomic fingerprint profiling LC-MS
Type: cell-based, Plasmodium falciparum
test context: S2 Table Metabolomics; metabolite dCMP

{"molecule": "CCC1(C)CC(CCNCc2ccccc2O)(c2ccc(C)cc2)CCO1 (centres unmarked) [MMV019406]", "tested target": "P. falciparum 3D7 trophozoites", "dCMP": -0.09039}
{"molecule": "CN(C)c1ccc(C=Cc2nc(=O)c3ccccc3o2)cc1 [MMV006309]", "tested target": "P. falciparum 3D7 trophozoites", "dCMP": 0.07949}
{"molecule": "O=C(NCC(c1ccsc1)N1CCCCCC1)c1ccc(C(F)(F)F)cc1 (centres unmarked) [MMV396672]", "tested target": "P. falciparum 3D7 trophozoites", "dCMP": -0.6707}
{"molecule": "COc1cccc(C=Cc2nc(=O)c3ccccc3o2)c1OC [MMV666693]", "tested target": "P. falciparum 3D7 trophozoites", "dCMP": 0.2474}

# next molecule below
Can you look up the measured dCMP of Cc1cc(NCCN2CCCCC2)c2ccc3ccccc3c2n1 [MMV006203] for me?
0.2991

###

System: P. falciparum 3D7 trophozoites
protocol summary: Metabolomic fingerprint profiling LC-MS
Assay type: cell-based, Plasmodium falciparum
test context: metabolite phosphoenolpyruvate, S2 Table Metabolomics
Recorded phosphoenolpyruvate by entry
Write the value as a bare number.

# example entries with known answers
{"compound": "CCN1CCN(Cc2ccc(NC(=O)c3cc4ccc5cccnc5c4[nH]3)cc2)CC1 [MMV020548]", "numeric result": 0.09829}
{"compound": "OC(CNC1CCCCC1)Cn1c2ccccc2c2ccccc21 (centres unmarked) [MMV009063]", "numeric result": 0.7676}
{"compound": "C[n+]1c2ccccc2nc2ccc(NCCO)cc21 [MMV396693]", "numeric result": 0.01034}
{"compound": "c1ccc(Cn2c(N=Nc3c(Nc4ccccc4)ccc4ccccc34)nc3ccccc32)cc1 [MMV666023]", "numeric result": -0.0645}
{"compound": "COc1ccc(-c2nc(NC(=O)CS(=O)(=O)c3ccc(F)cc3)sc2C)cc1 [MMV665915]", "numeric result": -0.5464}
{"compound": "CNCCCNc1ccnc2cc(Cl)ccc12 [MMV020500]", "numeric result": 0.07414}
{"compound": "COc1ccc(NC(=O)C2c3ccccc3C(=O)N(CC(C)C)C2c2cccs2)cc1 (centres unmarked) [MMV000662]", "numeric result": 0.5172}
{"compound": "CCC1(C)CC(CCNCc2ccccc2O)(c2ccc(C)cc2)CCO1 (centres unmarked) [MMV019406]", "numeric result": -0.0532}
{"compound": "COc1ccccc1CNC(=O)CCn1c(=O)[nH]c2ccsc2c1=O [MMV019066]", "numeric result": -0.1195}
{"compound": "Cc1ccc(N2C3c4ccccc4N(S(=O)(=O)c4ccc(C)cc4)C2c2ccccc2N3S(=O)(=O)c2ccc(C)cc2)cc1 [MMV007160]", "numeric result": 0.1975}

Can you look up the measured phosphoenolpyruvate of O=C(O)C1Cc2c([nH]c3ccccc23)C(c2ccc(Cl)cc2Cl)N1 (centres unmarked) [MMV008138] for me?
0.04449

Can you look up the measured phosphoenolpyruvate of CCOC(=O)c1cn(CC)c2cc(N3CCCCC3)c(F)cc2c1=O [MMV665827] for me?
-0.2956

Can you look up the measured phosphoenolpyruvate of CCc1c(C)c(=N)c2ccccc2n1C [MMV006278] for me?
-0.1381

Can you look up the measured phosphoenolpyruvate of CCOC(=O)c1c(NC(=O)c2ccccc2)sc2c(O)c(CN(CC)CC)ccc12 [MMV665831] for me?
-0.1118
